B1: glmS ribozyme (parent)
chain: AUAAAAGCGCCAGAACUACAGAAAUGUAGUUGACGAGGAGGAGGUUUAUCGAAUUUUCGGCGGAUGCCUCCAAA

variants of: B1; test: self-cleavage kobs at 2500 uM GlcN6P; higher = faster cleavage; RNA array; conditions: with glucosamine-6-phosphate
Fewer inactive variants are shown than the library holds.
MEASUREMENT_LABEL: self-cleavage kobs at 2500 uM GlcN6P (s⁻¹)
Give the quantity in s⁻¹, number only.

Example variants with recorded self-cleavage kobs at 2500 uM GlcN6P:
AUAAAAGCGCCAGGACUACAGAAAUGUAGUUGACGAGGAGGAGGUUUAUCGAUUUUUCGGCGGAUGCCUCCAAA [A14G A53U]    0.0342
AUAAAAGCGCCAGAACUACAGAAAUGUAGUUGACGAGGAGGAGGUUUAUCGAAUUUUCGGCGGAUUCCACCAAA [G66U U69A]    0.000118
AUAAAAGCGCCAGAACUACAGAAAUGUAGUUGUCGAGGAGGAGGUUUAUCGAAUAUUCGGCGGAUGCCUCCAAA [A33U U55A]    7.49e-05

What self-cleavage kobs at 2500 uM GlcN6P value was documented for this variant, AUAAAAGCGCCCGAACUACAGAAAUGUAGUUGACGAGGAGGAGGUUUAGCGAAUUUUCGGCGGAUGUCUCCAAA [A12C U49G C67U] ? 7.89e-05

What do you get for AUAAAAGCGCCUGAACUACAGAAAUGUAGUUGACGAGGAGGAGGUUUAUCGAAUUUUCAGCGGAUGCCUCCAAA [A12U G59A] ? 8.97e-05

What do you get for AUAAAAGCGUCAGUAUUACAGAAAUGUAGUUGACGAGGAGGAGGUUUAUCGAAUUUUCGGCGGAUGCGUCCAAA [C10U A14U C16U C68G] ? 0.000319

What do you get for AUAAAAGCGCCAGAACUACAGAAAUGUAGUUGACGAGGAGGAGGUUUAUGGAAUUUUCGGCGGAUGUCUCCAAA [C50G C67U] ? 0.000126

What do you get for AUAAAAGCGCCAGAACUACAGAAAUGUAGUCGACGAGGAGGAGGUCUAUCGAAUUUUCGGCGGAUGCCUCCAAA [U31C U46C] ? 0.000204

What do you get for AUAAAAGCGCCAGAACUACAGAAAUGUAGUUGACGAGGAGGAGGUUAAUCGAAUUGUCGGCGGAUGCCUCCAAA [U47A U56G] ? 0.0064

What do you get for AUAAAAGCGCCAGAACUACAGAAAUGUAAUUGACGAGGCGGAGGUUUAUCGAAUUUUCGGCGGAUGCCUCCAAA [G29A A39C] ? 0.000521
